Hey, just so you know, these numbers are from paper PMC7826789.

Task for the reader: assign each of the following compounds its reported Percent Control.
- Tested on: AURKB;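 further: KINOMEscan scanMAX binding as percent activity remaining versus control; lower means stronger binding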
- Measurement Parameters: Compound Concentration (nM):1000
Put your answer as a value accompanied by its unit after it.

{"columns": ["Compound", "Percent Control"],
 "data": [
  ["Nc1ncnc2occ(-c3ccc(NC(=O)Nc4cc(C(F)(F)F)ccc4F)cc3)c12 [GW770249X]", "5.7%"],
  ["CN(C)c1cc2c(Nc3ccc4c(cnn4Cc4ccccc4)c3)ncnc2cn1 [GW282974X]", "100%"],
  ["NS(=O)(=O)c1ccc(N/N=C2\\C(=O)Nc3ccc(C(=O)NCc4ccncc4)cc32)cc1 [GW300657X]", "59%"],
  ["COc1cc2ncn(-c3cc(O[C@H](C)c4ccccc4Cl)c(C(N)=O)s3)c2cc1OC [GSK237701A]", "38%"],
  ["CN1CCN(C(=O)c2ccc(NC(=O)Nc3ccc(N(C)c4ccnc(Nc5ccc(CS(C)(=O)=O)cc5)n4)cc3)cc2)CC1.Cl [GW830263A]", "0.4%"]
]}

Provide the reported Percent Control of each entry below, same order.
1. CC1=C(C(=O)Nc2ccc3[nH]ncc3c2)C(c2ccc(Cl)c(Cl)c2)CC(=O)N1 (stereo not shown) [GSK299115A]
2. COc1ccccc1-c1cc(/C=C2\C(=O)Nc3ncc(Br)cc32)cc(Br)c1O [GW442130X]
3. COc1cc(N2CCN(C(C)C)CC2)ccc1Nc1nc(Nc2ccc(F)cc2C(=O)NC[C@@H](O)CO)c2cc[nH]c2n1 [GSK1392956A]
4. CC1=C(C(=O)Nc2ccc3[nH]ncc3c2)C(c2ccc3ccccc3c2)CC(=O)N1 (stereo not shown) [GSK270822A]
5. COc1cc(/C=N/Nc2ncnc3[nH]ncc23)ccc1O [GW578748X]
6. Cl.O=C(Nc1ccc(Oc2ccc3[nH]c(NC(=O)c4ccccc4)nc3c2)cc1)Nc1cc(C(F)(F)F)ccc1F [GW709042A]
7. CCS(=O)(=O)c1ccc(OC)c(Nc2ncc(-c3cccc(OC)c3)o2)c1 [GW580509X]

Result:
["60%", "48%", "91%", "49%", "56%", "61%", "83%"]

Dear colleague, could you send me Percent Control for each of the items below? Thanks.
1. Cl.O=C(O[C@H]1CN[C@H](C#Cc2cc3ncnc(Nc4ccc5c(cnn5Cc5ccccc5)c4)c3s2)C1)N1CCOCC1 [GSK200398A]
2. CCc1ccc(Oc2nccc(-c3c(-c4ccc(F)cc4)ncn3C3CCNCC3)n2)cc1 [SB-242719]
3. COc1ccc2[nH]c3c4[nH]c5ccc(OC)cc5c4c4c(c3c2c1)C(=O)NC4=O [GW296115X]

Result:
["84%", "100%", "16%"]

Q: Please tell me: Percent Control of Cl.O=C(Nc1ccc(Oc2ccc3[nH]c(NC(=O)c4ccco4)nc3c2)cc1)Nc1cc(C(F)(F)F)ccc1F [GW683134A] , system AURKB?;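 further: KINOMEscan scanMAX binding as percent activity remaining versus control; lower means stronger binding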
Result: 13%
